Biological target: T1, BSA (bovine, UniProt P02769 25-607)
T1 construct: also called bovine serum albumin
T1 sequence (P02769 25-607 limits assumed): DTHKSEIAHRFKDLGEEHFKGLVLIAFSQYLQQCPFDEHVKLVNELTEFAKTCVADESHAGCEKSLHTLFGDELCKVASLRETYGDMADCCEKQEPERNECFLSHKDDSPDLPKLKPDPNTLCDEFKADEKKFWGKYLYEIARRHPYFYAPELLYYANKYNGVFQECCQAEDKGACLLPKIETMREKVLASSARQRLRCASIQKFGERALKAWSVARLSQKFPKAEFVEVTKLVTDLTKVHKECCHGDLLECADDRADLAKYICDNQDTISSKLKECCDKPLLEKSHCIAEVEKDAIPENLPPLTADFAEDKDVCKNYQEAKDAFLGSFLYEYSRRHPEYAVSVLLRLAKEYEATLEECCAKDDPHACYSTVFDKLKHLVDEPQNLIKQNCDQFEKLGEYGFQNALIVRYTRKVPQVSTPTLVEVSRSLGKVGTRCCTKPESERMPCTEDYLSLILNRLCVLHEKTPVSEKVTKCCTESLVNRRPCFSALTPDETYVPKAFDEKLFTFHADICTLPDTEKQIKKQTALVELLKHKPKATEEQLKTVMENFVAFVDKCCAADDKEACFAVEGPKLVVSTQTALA
Assay: ELISA
assay.metric: binding result

binder	assay.metric	reported.result
TP-3F2 Fab (Fab, V domains shown, Human Fab from HuCal Gold, expressed in E. coli TG1) VH: QVQLVESGGGLVQPGGSLRLSCAASGFTFSSYSMHWVRQAPGKGLEWVSGISYSSSFTYYADSVKGRFTISRDNSKNTLYLQMNSLRAEDTAVYYCARALGGGVDYWGQGTLVTVSS VL: DIELTQPPSVSVAPGQTARISCSGDNLPSKSVYWYQQKPGQAPVLVIYGDNNRPSGIPERFSGSNSGNTATLTISGTQAEDEADYYCQSWTSRPMVVFGGGTKLTVLG	binding result	no binding
TP-2C1 Fab (Fab, V domains shown, Human Fab from HuCal Gold, expressed in E. coli TG1) VH: QVQLVESGGGLVQPGGSLRLSCAASGFTFSPYVMSWVRQAPGKGLEWVSSISSSSSNTYYADSVKGRFTISRDNSKNTLYLQMNSLRAEDTAVYYCARGDSYMYDVWGQGTLVTVSS VL: DIELTQPPSVSVAPGQTARISCSGDSIGSYYAHWYQQKPGQAPVLVIYYDSKRPSGIPERFSGSNSGNTATLTISGTQAEDEADYYCQAYTGQSISRVFGGGTKLTVLG	binding result	no binding
TP-3H2 Fab (Fab, V domains shown, Human Fab from HuCal Gold, expressed in E. coli TG1) VH: QVQLVESGGGLVQPGGSLRLSCAASGFTFNSYYMSWVRQAPGKGLEWVSNISSSGSNTNYADSVKGRFTISRDNSKNTLYLQMNSLRAEDTAVYYCARVHYGFDFWGQGTLVTVSS VL: DIELTQPPSVSVAPGQTARISCSGDKLGKYYAYWYQQKPGQAPVLVIYGDSKRPSGIPERFSGSNSGNTATLTISGTQAEDEADYYCSSAAFGSTVFGGGTKLTVLG	binding result	no binding
